pIC50: −log10 of the molar value.
This document collects pIC50 values reported for OXA-48 Enzyme (Klebsiella pneumoniae).

Compound	Reading qualifier	pIC50
COc1ccc(N2/C(=N/c3ccc(I)cc3)CC2c2ccc(Cl)cc2)cc1 (centres unmarked)	=	5.12
COc1ccc(N2/C(=N/c3ccc(I)cc3)CC2c2ccccc2)cc1 (centres unmarked)	=	5.04
COc1ccc(N2/C(=N/c3ccc(Cl)cc3)CC2c2ccc(Cl)cc2)cc1 (centres unmarked)	<	4.30
c1ccc(/N=C2\CC(c3ccccc3)N2c2ccc3c(c2)OCCO3)cc1 (centres unmarked)	<	4.30
CC(C)(C)OC(=O)COc1ccc(N2/C(=N/c3ccccc3)CC2c2ccc(Cl)cc2)cc1 (centres unmarked)	<	4.30

----------
# inhibition at 5 µM per entry
- Test target: NDM-1 Enzyme (Klebsiella pneumoniae, UniProt C7C422)
- Sequence (C7C422 29-270, looked up, species assumed): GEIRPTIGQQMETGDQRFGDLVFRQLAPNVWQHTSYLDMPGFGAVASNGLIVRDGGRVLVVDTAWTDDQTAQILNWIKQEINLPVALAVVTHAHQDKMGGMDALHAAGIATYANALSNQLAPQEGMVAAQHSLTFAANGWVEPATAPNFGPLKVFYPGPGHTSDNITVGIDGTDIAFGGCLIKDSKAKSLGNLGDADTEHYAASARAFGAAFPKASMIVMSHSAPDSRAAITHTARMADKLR
- Experiment: Imipenem hydrolysis followed by UV absorbance slope, NDM-1 enzyme
- Type: biochemical
- Condition notes: C 5 μM
Endpoint name: inhibition at 5 µM (%)

Compound	Units label	Experimental value
CSc1ccc(N2/C(=N/c3ccccc3)CC2c2ccccc2)cc1 (stereo not shown)	%	98
CCOc1ccc(N2/C(=N/c3ccccc3)CC2c2ccccc2)cc1 (stereo not shown)	%	100
COc1ccc(N2/C(=N/c3ccccc3)CC2c2cc(Cl)cc(Cl)c2)cc1 (stereo not shown)	%	97
COc1ccc(N2/C(=N/c3ccccc3)CC2c2ccc3ccccc3c2)cc1 (stereo not shown)	%	94

----------
Assay read-out IC50; system under study: NDM-1 Enzyme (Klebsiella pneumoniae).
Endpoint name: IC50 (nM)

Compound	Endpoint name	Reading qualifier	Experimental value
COc1ccc(N2/C(=N/c3ccc(I)cc3)CC2c2ccc(Cl)cc2)cc1 (stereo not drawn)	IC50	=	700
c1ccc(/N=C2\CC(c3ccccc3)N2c2ccc3c(c2)OCCO3)cc1 (stereo not drawn)	IC50	=	1300
COc1ccc(N2/C(=N/c3ccccc3)CC2c2ccccc2)cc1 (single isomer, unassigned) [Enantiomer 2]	IC50	<	5000
c1ccc(/N=C2\CC(c3ccccc3)N2c2ccc3c(c2)OCO3)cc1 (stereo not drawn)	IC50	=	5000
c1ccc(/N=C2\CC(c3ccccc3)N2c2ccccc2)cc1 (stereo not drawn)	IC50	=	1200

----------
Record set of pIC50 for target or system NDM-1 Enzyme (Klebsiella pneumoniae, UniProt C7C422).
pIC50: −log10 of the molar value.

Molecule	Reading qualifier	pIC50
COc1ccc(N2/C(=N/c3ccccc3)CC2c2cccnc2)cc1 (centres unmarked)	<	4.00
O=C(O)COc1ccc(N2/C(=N/c3ccccc3)CC2c2ccc(Cl)cc2)cc1 (centres unmarked)	=	6.22
O=C(O)c1ccc(C2C/C(=N\c3ccccc3)N2c2ccccc2)cc1 (centres unmarked)	=	6.15

----------
- Test target: OXA-48 Enzyme (Klebsiella pneumoniae, UniProt Q6XEC0)
- Sequence (Q6XEC0 23-265, looked up, species assumed): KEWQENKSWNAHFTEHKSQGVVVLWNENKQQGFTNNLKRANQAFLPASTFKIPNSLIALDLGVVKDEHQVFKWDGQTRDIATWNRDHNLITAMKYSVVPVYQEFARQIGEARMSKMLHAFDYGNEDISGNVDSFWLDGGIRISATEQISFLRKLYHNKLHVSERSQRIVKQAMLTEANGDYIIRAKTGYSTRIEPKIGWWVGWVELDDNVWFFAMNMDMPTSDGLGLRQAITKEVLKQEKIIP
# maps each entry to its IC50
Endpoint name: IC50

Compound	Experimental value
COc1ccc(N2/C(=N/c3ccc(C(F)(F)F)cc3)CC2c2ccc(Cl)cc2)cc1 (stereo not shown)	> 50 µM
[N-]=[N+]=NCc1ccc(C2C/C(=N\c3ccccc3)N2c2ccccc2)cc1 (stereo not shown)	> 50 µM
O=C(O)c1ccc(C2C/C(=N\c3ccccc3)N2c2ccccc2)cc1 (stereo not shown)	> 50 µM
Oc1ccc(N2/C(=N/c3ccccc3)CC2c2ccccc2)cc1 (stereo not shown)	> 10 µM
COc1ccc(N2/C(=N/c3ccccc3)CC2c2ccc3ccccc3c2)cc1 (stereo not shown)	10 to 20 µM
CCOc1ccc(N2/C(=N/c3ccc(I)cc3)CC2c2ccc3ccccc3c2)cc1 (stereo not shown)	6.2 µM
CCOc1ccc(N2/C(=N/c3ccc(OC)cc3)CC2c2ccc3ccccc3c2)cc1 (stereo not shown)	7.4 µM
Oc1ccc(N2/C(=N/c3ccccc3)CC2c2ccc(Cl)cc2)cc1 (stereo not shown)	> 10 µM
CC(C)(C)OC(=O)NCCOC(=O)c1ccc(C2C/C(=N\c3ccccc3)N2c2ccccc2)cc1 (stereo not shown)	> 50 µM
COc1ccc(N2/C(=N/c3ccc(Cl)cc3)CC2c2ccccc2)cc1 (stereo not shown)	> 50 µM

----------
- Test target: NDM-1 Enzyme (Klebsiella pneumoniae)

Compound	IC50
CCOc1ccc(N2/C(=N/c3ccccc3)CC2c2ccccc2)cc1 (stereo not drawn)	500 to 5000 nM
COc1ccc(C2C/C(=N\c3ccccc3)N2c2ccccc2)cc1 (stereo not drawn) [drawing 77]	> 10000 nM
COc1ccc(N2/C(=N/c3ccccc3)CC2c2cc(Cl)cc(Cl)c2)cc1 (stereo not drawn)	2500 to 5000 nM
COc1ccc(N2/C(=N/c3ccc(I)cc3)CC2c2ccccc2)cc1 (stereo not drawn)	1100 nM
COc1ccc(N2/C(=N/c3ccccc3)CC2c2ccccc2)cc1 (stereo not drawn) [drawing 74]	2000 to 5000 nM
c1ccc(COc2ccc(N3/C(=N/c4ccccc4)CC3c3ccccc3)cc2)cc1 (stereo not drawn)	400 nM
Oc1ccc(N2/C(=N/c3ccccc3)CC2c2ccccc2)cc1 (stereo not drawn)	800 nM
Oc1ccc(N2/C(=N/c3ccccc3)CC2c2ccc(Cl)cc2)cc1 (stereo not drawn)	3600 nM
COC(=O)c1ccc(C2C/C(=N\c3ccccc3)N2c2ccccc2)cc1 (stereo not drawn)	4800 nM
CC(C)(C)OC(=O)c1ccc(C2C/C(=N\c3ccccc3)N2c2ccccc2)cc1 (stereo not drawn)	1800 nM
COc1cc(N2/C(=N/c3ccccc3)CC2c2ccccc2)cc(OC)c1OC (stereo not drawn) [drawing 75]	> 50000 nM
COc1ccc(C2C/C(=N\c3ccccc3)N2c2ccc(OC)cc2)cc1 (stereo not drawn)	5000 to 10000 nM
CCOc1ccc(N2/C(=N/c3ccc(I)cc3)CC2c2ccc3ccccc3c2)cc1 (stereo not drawn)	500 nM
ClCc1ccc(C2C/C(=N\c3ccccc3)N2c2ccccc2)cc1 (stereo not drawn)	2500 nM
CSc1ccc(N2/C(=N/c3ccccc3)CC2c2ccccc2)cc1 (stereo not drawn)	< 1000 nM
COc1ccc(N2/C(=N/c3ccc(I)cc3)CC2c2cc(Cl)cc(Cl)c2)cc1 (stereo not drawn)	500 nM
COc1cccc(N2/C(=N/c3ccccc3)CC2c2ccc(Cl)cc2)c1 (stereo not drawn)	400 nM
COc1cccc(N2/C(=N/c3ccccc3)CC2c2ccccc2)c1 (stereo not drawn)	1300 nM
CC(C)(C)OC(=O)COc1ccc(N2/C(=N/c3ccccc3)CC2c2ccc(Cl)cc2)cc1 (stereo not drawn)	2600 nM
COc1ccc(N2/C(=N/c3ccccc3)CC2c2ccccc2)cc1 (single isomer, unassigned) [Enantiomer 1]	< 5000 nM
COc1ccccc1N1/C(=N/c2ccccc2)CC1c1ccc(Cl)cc1 (stereo not drawn)	1100 nM
CC(C)(C)OC(=O)NCCOC(=O)c1ccc(C2C/C(=N\c3ccccc3)N2c2ccccc2)cc1 (stereo not drawn)	2900 nM
CCOc1ccc(N2/C(=N/c3ccc(OC)cc3)CC2c2ccc3ccccc3c2)cc1 (stereo not drawn)	600 nM
COc1ccc(N2/C(=N/c3ccc(Cl)cc3)CC2c2ccc(Cl)cc2)cc1 (stereo not drawn)	500 nM

----------
Recorded inhibition at 10 µM for the following molecules
- Test target: OXA-48 Enzyme (Klebsiella pneumoniae)
- Experiment: Imipenem hydrolysis followed by UV absorbance slope, OXA-48 enzyme
- Format: biochemical
- Condition notes: C 10 μM
Endpoint name: inhibition at 10 µM (%)

Molecule	Endpoint name	Units label	Experimental value
COc1ccc(C2C/C(=N\c3ccccc3)N2c2ccc(OC)cc2)cc1 (centres unmarked)	inhibition at 10 µM	%	3
CCOc1ccc(N2/C(=N/c3ccccc3)CC2c2ccccc2)cc1 (centres unmarked)	inhibition at 10 µM	%	45
COC(=O)c1ccc(C2C/C(=N\c3ccccc3)N2c2ccccc2)cc1 (centres unmarked)	inhibition at 10 µM	%	3.5
c1ccc(COc2ccc(N3/C(=N/c4ccccc4)CC3c3ccccc3)cc2)cc1 (centres unmarked)	inhibition at 10 µM	%	31
CSc1ccc(N2/C(=N/c3ccccc3)CC2c2ccccc2)cc1 (centres unmarked)	inhibition at 10 µM	%	15
CC(C)(C)OC(=O)c1ccc(C2C/C(=N\c3ccccc3)N2c2ccccc2)cc1 (centres unmarked)	inhibition at 10 µM	%	32
COc1ccc(N2/C(=N/c3ccccc3)CC2c2ccccc2)cc1OC (centres unmarked)	inhibition at 10 µM	%	9
c1ccc(/N=C2\CC(c3ccccc3)N2c2ccc3c(c2)OCO3)cc1 (centres unmarked)	inhibition at 10 µM	%	20

----------
- Experiment: Stability tests of imipenem with increasing concentrations of tested molecules
- Condition notes: C 1 μM of tested molecule

Compound	Slope (stability test of imipenem)
COc1cc(N2/C(=N/c3ccccc3)CC2c2ccccc2)cc(OC)c1OC (stereo not shown) [T4#7]	0
COc1ccc(C2C/C(=N\c3ccccc3)N2c2ccccc2)cc1 (stereo not shown) [T4#2]	3
COc1ccc(N2/C(=N/c3ccccc3)CC2c2ccc(Cl)cc2)cc1 (stereo not shown) [T4#9]	2
COc1ccc(N2/C(=N/c3ccccc3)CC2c2ccccc2)cc1 (stereo not shown) [T4#1]	9

----------
- Experiment: Stability tests of imipenem with increasing concentrations of tested molecules
- Condition notes: C 10 μM of tested molecule

Molecule	Slope (stability test of imipenem)
COc1ccc(N2/C(=N/c3ccccc3)CC2c2ccc(Cl)cc2)cc1 (stereo not shown) [T4#9]	38
COc1cc(N2/C(=N/c3ccccc3)CC2c2ccccc2)cc(OC)c1OC (stereo not shown) [T4#7]	10
COc1ccc(C2C/C(=N\c3ccccc3)N2c2ccccc2)cc1 (stereo not shown) [T4#2]	30
COc1ccc(N2/C(=N/c3ccccc3)CC2c2ccccc2)cc1 (stereo not shown) [T4#1]	50

meta.source: patent US11174226B2
